Tested on: Mycobacterium tuberculosis
Experiment: Antitubercular activity against multidrug resistant Mycobacterium tuberculosis isolate 9160 assessed as parasite growth inhibition measured after 7 days incubation by microplate alamar blue assay
Format: functional
Conditions: isolate 9160, 168 h
Each entry falls in a class defined on MIC; the bands are low band (below 0.1 µg/mL), middle band (0.1 µg/mL to below 0.4 µg/mL), high band (0.4 µg/mL or more)

compound: COc1ccc2nc(C)c(C(=O)NCCOc3ccc(Br)cc3)n2c1
targetDesc: Mycobacterium tuberculosis
categoryLabel: high band

compound: O=c1nc(N2CCN(CC3CCCCC3)CC2)sc2c([N+](=O)[O-])cc(C(F)(F)F)cc12
targetDesc: Mycobacterium tuberculosis
categoryLabel: middle band

compound: NNC(=O)c1ccncc1
targetDesc: Mycobacterium tuberculosis
categoryLabel: high band

Any idea which band `CCc1nc2ccc(Cl)cn2c1C(=O)NCCOc1ccc(Br)cc1` is in?
middle band

Follow-up entry: CCc1nc2ccc(Br)cn2c1C(=O)NCCOc1ccc(N2CC3CCCCC3C2)cc1 (stereo not given)
low band

Follow-up entry: `COc1ccc(OCCNC(=O)c2c(C3CC3)nc3ccc(C)cn23)cc1`
high band

Follow-up entry: `CCc1nc2ccc(Cl)cn2c1C(=O)NCCOc1ccc(N(C)C)cc1`
middle band

Follow-up entry: CCc1nc2ccc(C)cn2c1C(=O)NCCOc1ccc(N2CC3CCCCC3C2)cc1 (stereo not given)
low band

Follow-up entry: `CCc1nc2ccc(Br)cn2c1C(=O)NCCOc1ccc(N2CCC(C(F)(F)F)CC2)cc1`
middle band

----------
System: Mycobacterium tuberculosis
Assay: Antitubercular activity against multidrug resistant Mycobacterium tuberculosis isolate 9160 assessed as parasite growth inhibition measured after 7 days incubation by microplate alamar blue assay
Assay type: functional
Settings: isolate 9160, 168 h
Sorting guide: entries reporting MIC beneath 0.1 µg/mL go in the Y pile, the rest go in the N pile.

molecule: CCc1nc2ccc(Cl)cn2c1C(=O)NCCOc1ccc(Cl)cc1
categoryLabel: N

Decide: MIC of `CCc1nc2ccc(Cl)cn2c1C(=O)NCc1ccc(N2CCC(c3ccc(OC(F)(F)F)cc3)CC2)cc1` strictly below 0.1 µg/mL?
Y

Follow-up entry: `CO[C@H]1/C=C/O[C@@]2(C)Oc3c(C)c(O)c4c(O)c(c(/C=N/N5CCN(C)CC5)c(O)c4c3C2=O)NC(=O)/C(C)=C\C=C\[C@H](C)[C@H](O)[C@@H](C)[C@@H](O)[C@@H](C)[C@H](OC(C)=O)[C@@H]1C`
N

Follow-up entry: `CCc1nc2ccc(Cl)cn2c1C(=O)NCCOc1ccc(N2CCN(c3ccc(F)cc3)CC2)cc1`
Y

Follow-up entry: `CCc1nc2ccc(Br)cn2c1C(=O)NCCOc1ccc(N2CCCCC2)cc1`
Y

Follow-up entry: COc1ccc2nc(C)c(C(=O)NCCOc3ccc(N4CC5CCCCC5C4)cc3)n2c1 (stereo not drawn)
Y

Follow-up entry: `CCc1nc2ccc(Br)cn2c1C(=O)NCCOc1ccc(Br)cc1`
N

Follow-up entry: `COc1ccc2nc(C)c(C(=O)NCCOc3ccc(N4CCC(C(F)(F)F)CC4)cc3)n2c1`
N
